- assay.protocol: xn = mol fraction of the nth substance listed
- condition.context: 323.15 K; 100 kPa; Liquid; Cone and plate viscometry; x1 = 0.898
measured.endpoint: viscosity (mPa·s)

| molecule | reported |
| --- | --- |
| CCCCCCCC[P+](CC)(CC)CC.O=[N+]([O-])c1cn[n-]c1 [triethyloctylphosphonium 4-nitropyrazolide] + CCCCCC[n+]1ccn(C)c1.O=S(=O)([N-]S(=O)(=O)C(F)(F)F)C(F)(F)F | 67 |
| CCCCCCCCCCCCCC[P+](CCCCCC)(CCCCCC)CCCCCC.O=[N+]([O-])c1cn[n-]c1 [trihexyl(tetradecyl)phosphonium 4-nitropyrazolide] + CCCCCC[n+]1ccn(C)c1.O=S(=O)([N-]S(=O)(=O)C(F)(F)F)C(F)(F)F | 146 |
| CCCCCCn1cc[n+](C)c1C.O=[N+]([O-])c1cn[n-]c1 [1-hexyl-2,3-dimethylimidazolium 4-nitropyrazolide] + CCCCCCCCCCCCCC[P+](CCCCCC)(CCCCCC)CCCCCC.O=S(=O)([N-]S(=O)(=O)C(F)(F)F)C(F)(F)F | 144 |
| CCCCCCCCCCCCCC[P+](CCCCCC)(CCCCCC)CCCCCC.N#Cc1ccc[n-]1 [trihexyl(tetradecyl)phosphonium 2-cyanopyrrolide] + CCCCCC[n+]1ccn(C)c1.O=S(=O)([N-]S(=O)(=O)C(F)(F)F)C(F)(F)F | 108 |

###

- assay.protocol: xn = mol fraction of the nth substance listed
- condition.context: 303.15 K; 100 kPa; Liquid; Cone and plate viscometry; x1 = 0.9
In plain terms, low viscosity, meaning strictly below 200 mPa·s, gives Criterion met, and everything else gives Criterion not met.

| compound | group |
| --- | --- |
| CCCCCCn1cc[n+](C)c1.O=[N+]([O-])c1cn[n-]c1 [1-hexyl-3-methylimidazolium 4-nitropyrazolide] + CCCCCCCCCCCCCC[P+](CCCCCC)(CCCCCC)CCCCCC.O=S(=O)([N-]S(=O)(=O)C(F)(F)F)C(F)(F)F | Criterion not met |
| CCCCCCn1cc[n+](C)c1.N#Cc1ccc[n-]1 [1-hexyl-3-methylimidazolium 2-cyanopyrrolide] + CCCCCCCCCCCCCC[P+](CCCCCC)(CCCCCC)CCCCCC.O=S(=O)([N-]S(=O)(=O)C(F)(F)F)C(F)(F)F | Criterion met |
| CCCCCCn1cc[n+](C)c1.O=[N+]([O-])c1cn[n-]c1 [1-hexyl-3-methylimidazolium 4-nitropyrazolide] + CCCCCCCC[P+](CC)(CC)CC.O=S(=O)([N-]S(=O)(=O)C(F)(F)F)C(F)(F)F | Criterion not met |
| CCCCCCCC[P+](CC)(CC)CC.O=[N+]([O-])c1cn[n-]c1 [triethyloctylphosphonium 4-nitropyrazolide] + CCCCCCn1cc[n+](C)c1C.O=S(=O)([N-]S(=O)(=O)C(F)(F)F)C(F)(F)F | Criterion not met |

###

Listing of entries alongside the reported viscosity.
- assay.protocol: xn = mol fraction of the nth substance listed
- condition.context: 298.15 K; 100 kPa; Liquid; Cone and plate viscometry; x1 = 0.898

| compound | viscosity [mPa·s] |
| --- | --- |
| CCCCCCCCCCCCCC[P+](CCCCCC)(CCCCCC)CCCCCC.O=[N+]([O-])c1cn[n-]c1 [trihexyl(tetradecyl)phosphonium 4-nitropyrazolide] + CCCCCC[n+]1ccn(C)c1.O=S(=O)([N-]S(=O)(=O)C(F)(F)F)C(F)(F)F | 614 |
| CCCCCCn1cc[n+](C)c1C.O=[N+]([O-])c1cn[n-]c1 [1-hexyl-2,3-dimethylimidazolium 4-nitropyrazolide] + CCCCCCCCCCCCCC[P+](CCCCCC)(CCCCCC)CCCCCC.O=S(=O)([N-]S(=O)(=O)C(F)(F)F)C(F)(F)F | 830 |
| CCCCCCCC[P+](CC)(CC)CC.O=[N+]([O-])c1cn[n-]c1 [triethyloctylphosphonium 4-nitropyrazolide] + CCCCCC[n+]1ccn(C)c1.O=S(=O)([N-]S(=O)(=O)C(F)(F)F)C(F)(F)F | 263 |
| CCCCCCCCCCCCCC[P+](CCCCCC)(CCCCCC)CCCCCC.N#Cc1ccc[n-]1 [trihexyl(tetradecyl)phosphonium 2-cyanopyrrolide] + CCCCCC[n+]1ccn(C)c1.O=S(=O)([N-]S(=O)(=O)C(F)(F)F)C(F)(F)F | 414 |
